Assay: Inhibition of Saccharomyces cerevisiae alpha-glucosidase after 10 mins
pIC50: −log10 of the molar value.
attribute-measured: pIC50

{"columns": ["sample-smiles", "attribute-measured", "measurement"],
 "data": [
  ["O=C1c2ccccc2C(=O)N1CCCCCCCCCCOc1ccc(Cl)cc1Cl", "pIC50", 5.92],
  ["O=C1c2ccccc2C(=O)N1CCCOc1cccc(Cl)c1Cl", "pIC50", 4.82]
]}

I. OC[C@H]1NC[C@H](O)[C@@H](O)[C@@H]1O
II. Cc1cc(Cl)cc(C)c1OCCCN1C(=O)c2ccccc2C1=O
III. Cc1cc(Cl)cc(C)c1OCCCCCCCCCCN1C(=O)c2ccccc2C1=O
Please produce an ascending ranking of these molecules based on pIC50. Please list the labels according to the requested order.
I, II, III
